A collection of substances and their measured pKd
molecular target: WDR5 F133L (Homo sapiens, UniProt P61964, F133L); assay: Steady-state fluorescence polarization (FP), F133L; type: binding
pKd: −log10 of the molar value. No end group written: not given here.

| SUBSTANCE | CENSORING_QUALIFIER | pKd |
| --- | --- | --- |
| INPTGCARSEPKIL-NH2 [MLL2Win] | = | 5.68 |
| LNPHGAARAEVYLS-NH2 [MLL4Win] | = | 5.06 |
| EHQTGSARSEGYYP-NH2 [SETd1AWin] | = | 5.24 |
| VNPTGCARSEPKMS-NH2 [MLL3Win] | = | 6.00 |
| LNPHGSARAEVHLS-NH2 [MLL1Win] | < | 4.28 |

###

Listed below: koff values for each entry.
target: WDR5 D172A (Homo sapiens, UniProt P61964, D172A); assay: Biolayer interferometry (BLI), D172A; assay type: binding; conditions: pH 7.5, read-out: koff (dissociation rate constant)
No end group written: not given here.
PROPERTY: koff (s⁻¹)

| SUBSTANCE | PROPERTY | CENSORING_QUALIFIER | NUMERIC_READOUT |
| --- | --- | --- | --- |
| VNPTGCARSEPKMS-NH2 [MLL3Win] | koff | = | 0.0093 |
| LNPHGAARAEVYLS-NH2 [MLL4Win] | koff | = | 0.051 |
| INPTGCARSEPKIL-NH2 [MLL2Win] | koff | = | 0.014 |
| LNPHGSARAEVHLS-NH2 [MLL1Win] | koff | > | 1 |
| EHQTGSARSEGYYP-NH2 [SETd1AWin] | koff | = | 0.11 |

###

target: WDR5 S218F (Homo sapiens, UniProt P61964, S218F); experiment: Steady-state fluorescence polarization (FP), S218F; type: binding
No end group written: not given here.

| SUBSTANCE | EXPERIMENTAL_TARGET | READOUT_UNIT | Kd |
| --- | --- | --- | --- |
| EHQTGSARSEGYYP-NH2 [SETd1AWin] | WDR5 S218F (Homo sapiens, UniProt P61964, S218F) | nM | 100 |
| LNPHGSARAEVHLS-NH2 [MLL1Win] | WDR5 S218F (Homo sapiens, UniProt P61964, S218F) | nM | 8100 |
| INPTGCARSEPKIL-NH2 [MLL2Win] | WDR5 S218F (Homo sapiens, UniProt P61964, S218F) | nM | 94 |
| VNPTGCARSEPKMS-NH2 [MLL3Win] | WDR5 S218F (Homo sapiens, UniProt P61964, S218F) | nM | 80 |
| LNPHGAARAEVYLS-NH2 [MLL4Win] | WDR5 S218F (Homo sapiens, UniProt P61964, S218F) | nM | 420 |

###

target: WDR5 P216L (Homo sapiens, UniProt P61964, P216L); assay: Biolayer interferometry (BLI), P216L; assay type: binding
pKd: −log10 of the molar value. No end group written: not given here.
Recorded pKd for the following substances
PROPERTY: pKd

| SUBSTANCE | EXPERIMENTAL_TARGET | PROPERTY | CENSORING_QUALIFIER | NUMERIC_READOUT |
| --- | --- | --- | --- | --- |
| LNPHGAARAEVYLS-NH2 [MLL4Win] | WDR5 P216L (Homo sapiens, UniProt P61964, P216L) | pKd | = | 5.00 |
| VNPTGCARSEPKMS-NH2 [MLL3Win] | WDR5 P216L (Homo sapiens, UniProt P61964, P216L) | pKd | = | 6.70 |
| INPTGCARSEPKIL-NH2 [MLL2Win] | WDR5 P216L (Homo sapiens, UniProt P61964, P216L) | pKd | = | 6.70 |
| LNPHGSARAEVHLS-NH2 [MLL1Win] | WDR5 P216L (Homo sapiens, UniProt P61964, P216L) | pKd | ≤ | 4.00 |
| EHQTGSARSEGYYP-NH2 [SETd1AWin] | WDR5 P216L (Homo sapiens, UniProt P61964, P216L) | pKd | = | 6.42 |
